Reported logD values for a set of compounds
- test method notes: log p (pH 2), physical constants
- Format: physicochemical
Keep it simple and answer with nothing but the number.

These recorded examples may help you get a feel for the data.
{"columns": ["compound smiles", "reported value"],
 "data": [
  ["Fc1ccc(C2=NN(Cc3ccc(Br)cc3)CCO2)cc1", 4.73],
  ["Fc1cccc(C2=NN(Cc3ccc(-c4ccc(OC(F)(F)F)cc4)cc3)CCO2)c1", 5.87],
  ["Clc1ccc(C2=NN(Cc3ccc(Oc4ccccc4)cc3)CCO2)c(Cl)c1", 5.61],
  ["Fc1cccc(C2=NN(Cc3ccc(Br)cc3)CCO2)c1", 4.8],
  ["FC(F)(F)Oc1ccc(-c2ccc(CN3CCOC(c4cc(Cl)cc(Cl)c4)=N3)cc2)cc1", 7.36],
  ["Fc1cccc(F)c1C1=NN(Cc2ccc(-c3ccc(OC(F)(F)F)cc3)cc2)CCO1", 5.15],
  ["Brc1ccc(CN2CCOC(c3cccs3)=N2)cc1", 4.26],
  ["FC(F)(F)c1cccc(C2=NN(Cc3ccc(Oc4ccc(C(F)(F)F)cc4Cl)cc3)CCO2)c1", 6.43]
]}

Then there is this compound:
[Q] Specify logD for `Fc1ccc(CN2CCOC(c3cc(Cl)ccc3Cl)=N2)cc1Oc1ccccc1` and stop.
[A] 5.41
